system: OVCAR-4 ovarian; experiment: NCI tumour cell line growth inhibition, 48 h
This listing pairs compounds with measured TGI.

Compound | TGI
O=C(CCCNc1nc(-c2ccccc2)cs1)c1cccs1 | > 100 µM
CCN(CC)c1ccc2c(c1)Oc1nc(N)c(C#N)c(N)c1C2Sc1ccc(OC)cc1 (centres undefined) | 3.02 µM
O=C(Nc1cccc(Cc2cccc(NC(=O)c3ccccc3)c2)c1)c1ccccc1 | 39.8 µM
CC(C)C1CC2C(=O)N(c3ccccc3)C(=O)C2c2[nH]c3ccccc3c21 (centres undefined) | 5.63 µM
CC(=O)c1ccc2c(ccc(=O)n2C)c1 | > 100 µM
Cc1nn(C(=O)c2ccncc2)c2c1C(c1ccccc1)SC(N)=N2 (centres undefined) | > 10 µM
O=C(O)CS | > 100 µM
O=c1cc(-c2ccccc2)oc2cc(O)cc(O)c12 | > 100 µM
O=C(O)Cc1ccc(Oc2nc3ccccc3nc2C(=O)O)cc1 | > 100 µM
CC(=O)Oc1cc2c(c3ncccc13)OC(C)(C)C2 | 25.5 µM
O=C1C=CC2=[N+]([O-])C(c3ccccc3)(c3ccccc3)C(=Nc3ccccc3)C2=C1 | 3.28 µM
Cc1cc(-c2nc3ccccc3s2)ccc1N | > 84.1 µM
c1ccc(P(CCP(c2ccccn2)c2ccccn2)c2ccccc2)cc1 | > 100 µM
COc1cc(C=C2C(C)=NN(c3cccc(Cl)c3)C23C(Cl)C(=O)N3c2nc3ccccc3s2)ccc1O (centres undefined) | > 100 µM
N#CC(C#N)=C(N)/C(C#N)=C/c1ccc2ccccc2n1 | > 100 µM
CCNc1nnc(-c2nsc3ccccc23)s1 | > 100 µM
CC(=O)NNc1nc(C)c(C(/C=C/c2ccc([N+](=O)[O-])cc2)=N/NC(N)=S)s1 | > 100 µM
CCN(CC)CCNC(=O)c1ccc(I)cc1 | > 100 µM
CN(C)CCNC(=O)c1cccc2c(Nc3ccc(S(N)(=O)=O)cc3)c3ccccc3nc12 | 5.77 µM

---

tested on: OVCAR-5 ovarian; assay: NCI tumour cell line growth inhibition, 48 h
This listing pairs compounds with measured TGI.
Measured Attribute: TGI

Compound | Readout Value
CC(C)(C)OC(=O)N(O)CCCn1cnc2c(N)ncnc21 | > 100 µM
O=C1NC(N2CCCCC2)=N/C1=C\c1cccs1 | > 100 µM
CN1C(c2ccccc2)CS(=O)(=O)CS1(=O)=O (stereo not drawn) | > 100 µM

---

test system: UACC-62 melanoma; assay: NCI tumour cell line growth inhibition, 48 h
Measured Attribute: TGI

Molecule | Readout Value
O=C(O)c1ccc(S(=O)(=O)Nc2ccc3oc4c(c3c2)C(=O)CCC4)cc1 | > 100 µM
CC(=O)OC1CC2Oc3ccc(C)cc3C(C)(O2)C1=O (stereo not drawn) | > 100 µM
CC(C)C1CC2C(=O)N(c3ccccc3)C(=O)C2c2[nH]c3ccccc3c21 (stereo not drawn) | > 100 µM

---

test system: HS 578T breast; test: NCI tumour cell line growth inhibition, 48 h
This listing pairs compounds with measured TGI.

Compound | Measured Target | TGI
CCCCOC(=O)NC(Nc1cccc(C(F)(F)F)c1)(C(F)(F)F)C(F)(F)F | HS 578T breast | > 100 µM
CCOC(=O)c1sc(N/N=C2\NC(=O)/C(=C/c3ccc([N+](=O)[O-])cc3)S2)nc1C | HS 578T breast | > 100 µM
Cc1ccc2c(sc(-c3ccc4c(c3)sc(-c3ccc5c(c3)sc(-c3ccc(N(C)C)cc3)[n+]5C)[n+]4C)[n+]2C)c1S(=O)(=O)O (tested in a mixture with another compound) | HS 578T breast | > 100 µM
CC(C)OP(=O)(OC(C)C)/C(C#N)=C/c1ccco1 | HS 578T breast | > 100 µM
Cc1cccc(CC(Cc2c(C)cccc2C(=O)O)C(=O)O)c1 (stereo not given) | HS 578T breast | > 100 µM

---

system: COLO 205 colon; assay: NCI tumour cell line growth inhibition, 48 h; in the data active means GI50 below about 0.43 µM; inactive means the rest
Outcomes: active, inactive

Molecule | Measured Target | Assigned Category
Cc1cc2cn3c4ccc(O)cc4[nH]c(=O)c3c2cc1C | COLO 205 colon | active
CN1CCN(c2cc(C(=O)Nc3cc4cc(-c5cnn(C)c5)ccc4cn3)ccn2)CC1 | COLO 205 colon | active
Nc1nc(Cl)cc(OCC2(CO)CC(OCc3ccccc3)C2)n1 (stereo unspecified) | COLO 205 colon | inactive
CN(C)C/C=C/C(=O)Nc1cc2c(Nc3ccc(F)c(Cl)c3F)ncnc2cc1OCCOC(F)F | COLO 205 colon | inactive
CN1CCN(c2ccc(Nc3nc(N)c(C(=O)c4ccc5c(c4)OCCO5)s3)cc2)CC1 | COLO 205 colon | inactive
CS(=O)(=O)CCNCc1ccc(-c2ccc3ncnc(Nc4ccc(OCc5cccc(F)c5)c(C(F)(F)F)c4)c3c2)o1 | COLO 205 colon | inactive

---

tested on: NCI/ADR-RES ovarian; assay: NCI tumour cell line growth inhibition, 48 h

Given Smiles | TGI
CCN1C2=NCCN2S(=O)(=O)c2ccccc21 | > 100 µM
CCOP(=O)(C/C=C/Cn1nc(Br)c(=O)[nH]c1=O)OCC | > 100 µM
COc1ccc2c(c1)/C(=C\c1c(C)nc3sc(C)cn13)C(=O)N2 | > 42.6 µM
Cc1cc(Nc2c3ccccc3nc3ccccc23)ccc1NS(C)(=O)=O | 52.5 µM
O=C(C[n+]1ccccc1)N/N=C(\Cc1nc2ccc([N+](=O)[O-])cc2[nH]c1=O)C(=O)Nc1cc(Cl)c(Cl)cc1Cl | > 100 µM
O=C(O)c1ccc(S(=O)(=O)Nc2ccc3oc4c(c3c2)C(=O)CCC4)cc1 | > 100 µM

---

This listing pairs molecules with measured TGI.
tested on: A549 NSCLC; assay: NCI tumour cell line growth inhibition, 48 h
Measured Attribute: TGI

Molecule | Readout Value
CC(=O)OC1CC2Oc3ccc(C)cc3C(C)(O2)C1=O (stereo not given) | > 100 µM
Cc1cc(C)c2c(c1)CC1(Cc3c(C)ccc(C)c3C1=O)C2=O (stereo not given) | > 100 µM
Cc1nccc2c3ccc(OCc4cn(-c5ccc(Cl)cc5)nn4)cc3n(CCCc3ccccc3)c12 | > 33.3 µM
O=C(Nc1cc2c(=O)oc3ccccc3c2oc1=O)c1cccnc1 | > 100 µM
O=C(NNC(c1ccccc1)C(F)(F)F)c1ccncc1 (stereo not given) | > 100 µM

---

This listing pairs molecules with measured TGI.
system: NCI-H460 lung; assay: NCI tumour cell line growth inhibition, 48 h

Molecule | TGI
[N-]=[N+]=Nc1c(C=O)c(=O)n(-c2ccccc2)c2ccccc12 | > 100 µM
CC(C)CCC[C@@H](C)C1CCC2[C@@H]3CC=C4C[C@@H](C(=O)NCC[N+](C)(C)CCCS(=O)(=O)[O-])CC[C@]4(C)C3CC[C@@]21C (some centres undefined) | 30.6 µM
O=C(Nc1cccc(Cc2cccc(NC(=O)c3ccccc3)c2)c1)c1ccccc1 | > 100 µM
Clc1ccc(C2=Nn3c(nnc3-c3cc(Cl)cc(Cl)c3Cl)SC2)cc1 | > 100 µM
Cc1ccc(NC(=O)C(=O)CC(=O)C2CCOC2=O)c(C)c1 (centres undefined) | > 100 µM
COC1=CC(=O)C(OC)=C(OC)C1=O | > 100 µM
O=C1O[C@H]2[C@H](O)[C@@H](OC(=O)c3cc(O)c(O)c4c3[C@@H]3C1=CC(=O)C(O)(O)C3(O)O4)[C@H](OC(=O)c1cc(O)c(O)c(O)c1)O[C@@H]2CO (some centres undefined) | > 100 µM
NCCN.NCCN.O=C[O-].O=C[O-].[Co+3].[O-][Cl+3]([O-])([O-])[O-] | > 100 µM
CN(CC#N)C1CCCC[C@H]1O (some centres undefined) | > 100 µM
CCn1cc(-c2ccnc3[nH]ccc23)c(-c2cccc(NC(=O)Nc3ccc(OCc4ccccc4)cc3)c2)n1 | > 25 µM
COc1cc2c(cc1OC)C(OC)N(C)c1c-2ccc2cc3c(cc12)OCO3 (centres undefined) | 3.58 µM
Oc1ccccc1C=Nc1ccc(-c2nc3ccccc3[nH]2)cc1 | > 100 µM
CC(C)C1CC2C(=O)N(c3ccccc3)C(=O)C2c2[nH]c3ccccc3c21 (centres undefined) | > 100 µM
CC1(C)OB(O)OC1(C)C | > 100 µM
C/C1=C/C(C)CC(C)OC(=O)C(C)NC(=O)C(Cc2ccc(O)c(I)c2)N(C)C(=O)C(C)NC(=O)C(C)C1 (centres undefined) | 12.8 µM
Cc1nc2c(nc1C)-c1c(c3c(n1C)C(=O)CCC3)C(=O)C2=O | 2.7 µM
Cc1oc(N)c(S(=O)(=O)c2ccc(Cl)cc2)c1C | > 100 µM
COc1ccc(-c2nc(C(=O)c3ccccc3)n(CC(=O)c3ccccc3)c2-c2ccc(OC)cc2)cc1 | > 100 µM
COc1ccc(Cc2cc3c(cc2OCC(=O)O)OCO3)cc1 | > 100 µM
OC[C@]1(n2nc3ccccc3n2)OC[C@@H]1c1ccccc1 | > 100 µM
CCOC(=O)Cc1csc2[n+]1C(=O)/C(=C/c1cccc(OC)c1O)S2 | > 100 µM
Cc1ccc(S(=O)(=O)N2C[C@](O)(c3ccccc3)[C@H]2C)cc1 | > 100 µM
O=C(c1ccccc1)c1oc2ccc(Br)cc2c1-c1cnn(-c2ccccc2)c1 | > 100 µM
OC(COc1ccc(F)cc1)Cn1cnc2c(Cl)ncnc21 (centres undefined) | > 100 µM

All figures here come from PubChem BioAssay (NCI).
